- Test system: Streptococcus salivarius
- test.protocol: growth AUC relative to DMSO control (median of replicates) (fraction); higher = more growth (less inhibition), active = hit call of the paper
- assay.context: 20 µM; 24 h
The label depends only on growth AUC: Satisfied if it is at least 1, Not satisfied if it is smaller.

Field: example entries. Status: answers known.
CON(C)C(=O)Nc1ccc(Br)c(Cl)c1 ... Not satisfied
COP(=O)(OC)OC=C(Cl)Cl ... Satisfied
COP(=S)(Oc1cc(Cl)c(Br)cc1Cl)c1ccccc1 (configuration not stated) ... Satisfied
c1ccc2c(c1)cc1ccc3cccc4ccc2c1c34 ... Satisfied

Consider the additional compound presented here.
Kindly determine if growth AUC recorded for O=S(=O)(c1ccc(O)cc1)c1ccc(O)cc1 is above or exactly 1.
Satisfied
